All values here come from the supplement of paper PMC6555819.

# System: FXR:RXRa (NR concentration 270 nM, RXRa partner concentration 90 nM)
# Procedure Text: PBM binding z-score (relative to random genomic background probes); higher = stronger binding; sequences stand for … in GC…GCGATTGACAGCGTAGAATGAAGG
PBM binding z-score below 3 gives false; PBM binding z-score at or above it gives true.

# Sequence Record, Tested System, Class
data = [
    ("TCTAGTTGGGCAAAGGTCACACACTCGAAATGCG", "FXR:RXRa (NR concentration 270 nM, RXRa partner concentration 90 nM)", "true"),
    ("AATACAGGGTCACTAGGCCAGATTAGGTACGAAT", "FXR:RXRa (NR concentration 270 nM, RXRa partner concentration 90 nM)", "true"),
    ("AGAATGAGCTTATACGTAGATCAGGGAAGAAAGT", "FXR:RXRa (NR concentration 270 nM, RXRa partner concentration 90 nM)", "false"),
    ("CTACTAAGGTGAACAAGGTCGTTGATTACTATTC", "FXR:RXRa (NR concentration 270 nM, RXRa partner concentration 90 nM)", "false"),
    ("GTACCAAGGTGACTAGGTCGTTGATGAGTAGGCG", "FXR:RXRa (NR concentration 270 nM, RXRa partner concentration 90 nM)", "false"),
    ("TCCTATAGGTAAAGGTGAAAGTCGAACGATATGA", "FXR:RXRa (NR concentration 270 nM, RXRa partner concentration 90 nM)", "false"),
    ("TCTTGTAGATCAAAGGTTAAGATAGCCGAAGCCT", "FXR:RXRa (NR concentration 270 nM, RXRa partner concentration 90 nM)", "false"),
    ("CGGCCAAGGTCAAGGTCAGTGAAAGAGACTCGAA", "FXR:RXRa (NR concentration 270 nM, RXRa partner concentration 90 nM)", "true"),
]

Can `CAAACTAGGTCAAAGGCCAAAGTCGAGCCAACCA` be said to have PBM binding z-score at or above 3? true

Does PBM binding z-score meet or surpass 3 for `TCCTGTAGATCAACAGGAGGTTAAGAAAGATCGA` ? false

hey, is PBM binding z-score for this one >= 3? `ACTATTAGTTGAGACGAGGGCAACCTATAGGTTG` false

Evaluate `CCTCGGAGCACAACAGGAGGTCAGAGCTGCCAGA` : PBM binding z-score at minimum 3? false

Identify whether the reported PBM binding z-score of the following sequence is 3 or greater: `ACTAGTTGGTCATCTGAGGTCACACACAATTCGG` true

Entry `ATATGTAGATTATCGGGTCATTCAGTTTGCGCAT` : is its PBM binding z-score no less than 3? false

---

# Test system: VDR homodimer (NR concentration 270 nM)
# Procedure Text: PBM binding z-score (relative to random genomic background probes); higher = stronger binding; sequences stand for … in GC…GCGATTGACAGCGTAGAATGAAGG
Would you kindly list PBM binding z-score for each of these sequences?
Give bare numbers.

# Sequence Record, PBM binding z-score
data = [
    ("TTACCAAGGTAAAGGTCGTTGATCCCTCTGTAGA", 1.55),
    ("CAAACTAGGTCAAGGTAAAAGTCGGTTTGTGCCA", 0.742),
]

I'm hoping you can list PBM binding z-score for every sequence here, please.
1. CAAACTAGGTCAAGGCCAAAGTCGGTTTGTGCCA
2. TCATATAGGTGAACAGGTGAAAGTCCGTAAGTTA
3. ACTATTAGTTGAGCCGAGGGCAACCGATAGGTTG
4. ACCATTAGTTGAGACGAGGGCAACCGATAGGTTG
5. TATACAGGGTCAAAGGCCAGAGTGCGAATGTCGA

1. 1.22
2. 0.153
3. 0.692
4. 1.04
5. 3.38

Batch of 5 sequences: report PBM binding z-score for each.
1. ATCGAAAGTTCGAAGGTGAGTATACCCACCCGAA
2. TTACCAAGGTGAAGGTCGTTGTTCCCTCTGTAGA
3. CCTAGCGGGCCAGGGTCACTCAAGCATTTCGCTT
4. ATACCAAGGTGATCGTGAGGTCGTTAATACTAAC
5. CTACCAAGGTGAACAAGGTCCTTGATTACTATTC

1.07
1.11
1.28
3.04
0.358
